# credit: patent US20210038607A1

Biological target: Human HDAC7 (Homo sapiens)
Construct: (a.a. 518-end) with N-terminal GST tag; GST (N); host or cells: baculovirus expression system
Sequence (Q8WUI4 518-952 limits assumed): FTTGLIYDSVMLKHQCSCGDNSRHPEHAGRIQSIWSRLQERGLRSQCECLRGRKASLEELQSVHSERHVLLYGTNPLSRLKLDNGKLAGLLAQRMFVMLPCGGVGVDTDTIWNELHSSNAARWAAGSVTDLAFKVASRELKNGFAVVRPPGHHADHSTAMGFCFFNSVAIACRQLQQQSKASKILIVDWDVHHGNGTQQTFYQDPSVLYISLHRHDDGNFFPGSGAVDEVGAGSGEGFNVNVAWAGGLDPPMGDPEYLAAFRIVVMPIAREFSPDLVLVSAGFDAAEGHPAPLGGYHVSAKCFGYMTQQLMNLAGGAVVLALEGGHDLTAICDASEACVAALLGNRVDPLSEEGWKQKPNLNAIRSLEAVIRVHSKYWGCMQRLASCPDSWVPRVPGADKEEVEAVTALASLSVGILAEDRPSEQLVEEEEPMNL
Experiment: HDAC7 biochemical assay, class IIa-specific substrate
Details: read-out: HDAC Isoform IC50 (nM) 7
Attribute: IC50

Example cases with answers are listed next.
1. O=C(c1ccc(N(Cc2ccc(-c3noc(C(F)(F)F)n3)s2)c2cnccn2)nn1)N1CCC1 [Example FF]	≤ 500 nM
2. Cn1cnc2cc(N(Cc3ccc(-c4noc(C(F)(F)F)n4)s3)c3cnccn3)ncc21 [Example AE]	≤ 1000 nM
3. CC(C)OC1CN(C(=O)c2cnnc(N(Cc3ccc(-c4noc(C(F)(F)F)n4)s3)c3cnccn3)c2)C1 [Example GC]	≤ 500 nM
4. COc1cnc(N(Cc2ccc(-c3noc(C(F)(F)F)n3)s2)c2cnccn2)cn1 [Example BI]	≤ 500 nM
5. O=C(O)c1ccc(N(Cc2sc(-c3noc(C(F)(F)F)n3)cc2F)c2cnccn2)nn1 [Example EZ]	≤ 10000 nM
6. FC(F)(F)c1cnnc(N(Cc2ccc(-c3noc(C(F)(F)F)n3)s2)c2cncnc2)c1 [Example EQ]	≤ 10000 nM
7. O=C(O)c1ccc(N(Cc2ccc(-c3noc(C(F)(F)F)n3)s2)c2cnccn2)nn1 [Example DP]	≤ 10000 nM
8. O=C(c1ccc(N(Cc2ccc(-c3noc(C(F)(F)F)n3)s2)c2cnccn2)nn1)N1CCC12COC2 [Example FH]	≤ 500 nM
9. O=C(O)c1cnnc(N(Cc2ccc(-c3noc(C(F)(F)F)n3)s2)c2cc(C(F)(F)F)cnn2)c1 [Example ES]	≤ 10000 nM
10. FC(F)(F)c1nc(-c2ccc(CN(c3cnccn3)c3ccc4ncccc4n3)s2)no1 [Example X]	≤ 1000 nM

Short answer for Cc1nc(N2CCCC2)cc(N(Cc2ccc(-c3noc(C(F)(F)F)n3)s2)c2cnccn2)n1 [Example CQ] : IC50 was ≤ 10000 nM

Short answer for FC(F)(F)c1nc(-c2ccc(CN(c3ccccn3)c3ccccn3)s2)no1 [Example U] : IC50 was ≤ 10000 nM

Short answer for FC(F)(F)c1nc(-c2ccc(CN(c3ccc(C4CC4)cn3)c3cnccn3)s2)no1 [Example AA] : IC50 was ≤ 10000 nM

Short answer for NC(=O)c1ccc(N(Cc2ccc(-c3noc(C(F)(F)F)n3)s2)c2cnccn2)nn1 [Example DQ] : IC50 was ≤ 500 nM

Short answer for FC(F)(F)c1nc(-c2ccc(CN(c3cnccn3)c3cncnc3C3CC3)s2)no1 [Example CZ] : IC50 was ≤ 500 nM

Short answer for O=C(c1cnnc(N(Cc2ccc(-c3noc(C(F)(F)F)n3)s2)c2cnccn2)c1)N1CCC12COC2 [Example GF] : IC50 was ≤ 10000 nM

Short answer for Cc1ncc(N(Cc2ccc(-c3noc(C(F)(F)F)n3)s2)c2cnccn2)nc1C [Example BT] : IC50 was ≤ 10000 nM

Short answer for FC(F)(F)c1cnnc(N(Cc2ccc(-c3noc(C(F)(F)F)n3)s2)c2cccnn2)c1 [Example ER] : IC50 was ≤ 10000 nM
